# Assay Summary: Intrinsic clearance in mouse liver microsomes at 1 umol/L
# Format: ADME
# Assay Conditions: read-out: CLH
Measured Parameter: microsomal CLint at 1 µM (µL/min/mg)
Quick note: give the figure in µL/min/mg, leave out the unit.

Q) Give the measured microsomal CLint at 1 µM of CCCc1cc(C(O)(C(F)(F)F)C(F)(F)F)ccc1Oc1ccc(C(=O)CN2C(=O)NC(C)(c3ccc(OC(C)C)cc3)C2=O)c(O)c1 (configuration not stated) .
A) 76

Q) State the recorded microsomal CLint at 1 µM for this entry: CCCc1cc(C(O)(C(F)(F)F)C(F)(F)F)ccc1Oc1ccc(C(=O)CN2C(=O)NC(C)(c3ccc(OC(C)C)cn3)C2=O)c(O)c1 (racemic)
A) 24

* * *

# Assay Summary: Intrinsic clearance in human liver microsomes at 1 umol/L
# Assay type: ADME
# Assay Conditions: read-out: CLH
Measured Parameter: microsomal CLint at 1 µM (µL/min/mg)
Quick reminder: number only, in µL/min/mg, skip the unit.

Q) Entry under review: CCCc1cc(C(O)(C(F)(F)F)C(F)(F)F)ccc1Oc1ccc(C(=O)CN2C(=O)NC(C)(c3ccc(OC(C)C)cn3)C2=O)c(O)c1 (racemic) . Reported microsomal CLint at 1 µM?
A) 7

Q) Request the reported microsomal CLint at 1 µM associated with CCCc1cc(C(O)(C(F)(F)F)C(F)(F)F)ccc1Oc1ccc(C(=O)CN2C(=O)NC(C)(c3ccc(OC(C)C)cc3)C2=O)c(O)c1 (configuration not stated)
A) 12

* * *

# Tested on: CHO-K1
# Assay Summary: Selectivity ratio of EC50 for GAL4 fused LXRalpha (unknown origin) transfected in CHOK1 cells to EC50 for GAL4 fused LXRbeta-LBD (unknown origin) transfected in CHOK1 cells
# Format: cell-based
# Assay Conditions: Homo sapiens
Measured Parameter: Ratio EC50
Lab note: jot the number down without any unit.

Q) // returns reported Ratio EC50 for input CCCc1cc(C(O)(C(F)(F)F)C(F)(F)F)ccc1Oc1ccc(C(O)CN2C(=O)NC(C)(c3ccc(OC(C)C)cc3)C2=O)cc1 (centres undefined)
A) 4.29

Q) Return reported Ratio EC50; argument: CCCc1cc(C(O)(C(F)(F)F)C(F)(F)F)ccc1Oc1ccc(CCN2C(=O)NC(C)(c3ccc(OC(C)C)cc3)C2=O)c(OC)c1 (centres undefined)
A) 6.02

Q) Can you share its Ratio EC50? I mean this molecule: CCCc1cc(C(O)(C(F)(F)F)C(F)(F)F)ccc1Oc1cccc(CCN2C(=O)NC(C)(c3ccc(OC(C)C)cc3)C2=O)c1 (centres undefined)
A) 1.01

* * *

# System: Oxysterols receptor LXR-beta (Homo sapiens) (UniProt P55055)
# Sequence (P55055 whole entry, the tested form may be a part): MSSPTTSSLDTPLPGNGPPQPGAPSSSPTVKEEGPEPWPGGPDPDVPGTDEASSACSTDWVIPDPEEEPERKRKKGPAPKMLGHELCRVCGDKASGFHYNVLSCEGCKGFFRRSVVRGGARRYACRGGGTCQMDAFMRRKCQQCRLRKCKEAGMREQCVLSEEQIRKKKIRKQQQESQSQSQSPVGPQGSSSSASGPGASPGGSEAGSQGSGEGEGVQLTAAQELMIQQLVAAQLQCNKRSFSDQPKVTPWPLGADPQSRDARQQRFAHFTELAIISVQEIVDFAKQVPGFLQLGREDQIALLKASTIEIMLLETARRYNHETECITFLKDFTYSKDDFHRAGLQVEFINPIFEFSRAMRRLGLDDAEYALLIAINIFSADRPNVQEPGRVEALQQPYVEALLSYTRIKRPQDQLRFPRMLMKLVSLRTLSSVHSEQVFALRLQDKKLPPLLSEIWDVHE
# Assay Summary: Agonist activity at GAL4 fused LXRbeta-LBD (unknown origin) transfected in CHOK1 cells at 10 uM after 24 hrs by luciferase reporter gene assay in presence of T0901317
# Format: cell-based
# Assay Conditions: CHO-K1
Could you please report measured Emax for the items listed next?
Your answer is read as %, so omit the unit and give the number.

Q) Fill blank: measured Emax of the molecule CCCc1cc(C(O)(C(F)(F)F)C(F)(F)F)cc(CCC)c1OCC#CCN1C(=O)NC(C)(c2ccc(OC(C)C)cc2)C1=O (stereo not given) is ____.
A) 149

Q) // Emax lookup, key: CCCc1cc(C(O)(C(F)(F)F)C(F)(F)F)ccc1Oc1ccc(CCN2C(=O)NC(C)(c3ccc(OC(C)C)cc3)C2=O)c(OC)c1 (stereo not given)
A) 534

Q) Give its Emax value. Item: CCCc1cc(C(O)(C(F)(F)F)C(F)(F)F)ccc1Oc1cccc(CCN2C(=O)NC(C)(c3ccc(OC(C)C)cc3)C2=O)c1 (stereo not given)
A) 126

Q) What value of Emax has been recorded for this entry: CCCc1cc(C(O)(C(F)(F)F)C(F)(F)F)ccc1Oc1ccc(CCN2C(=O)NC(C)(c3ccc(OC(C)C)cc3)C2=O)c(O)c1 (stereo not given)
A) 284

Q) Please look up its Emax: CCCc1cc(C(O)(C(F)(F)F)C(F)(F)F)ccc1Oc1ccc(C(=O)CN2C(=O)NC(C)(c3ccc(OC(C)C)cc3)C2=O)c(C)c1 (stereo not given)
A) 264

* * *

# System: UniProt:Q13133
# Sequence (Q13133 whole entry, the tested form may be a part): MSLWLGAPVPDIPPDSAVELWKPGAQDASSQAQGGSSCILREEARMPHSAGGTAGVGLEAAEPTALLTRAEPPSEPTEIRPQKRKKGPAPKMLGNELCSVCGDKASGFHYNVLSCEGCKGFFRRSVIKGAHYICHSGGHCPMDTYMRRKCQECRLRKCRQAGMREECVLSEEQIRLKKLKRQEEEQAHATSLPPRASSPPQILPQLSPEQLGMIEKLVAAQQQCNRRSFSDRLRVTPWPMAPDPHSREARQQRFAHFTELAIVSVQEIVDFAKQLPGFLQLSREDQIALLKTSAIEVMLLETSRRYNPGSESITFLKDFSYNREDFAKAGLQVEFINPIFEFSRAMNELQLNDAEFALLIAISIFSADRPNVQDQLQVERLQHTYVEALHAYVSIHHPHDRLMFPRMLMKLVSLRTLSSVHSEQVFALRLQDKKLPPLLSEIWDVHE
# Assay Summary: Agonist activity at GAL4 fused LXRalpha (unknown origin) transfected in CHOK1 cells at 10 uM after 24 hrs by luciferase reporter gene assay in presence of T0901317
# Format: cell-based
# Assay Conditions: CHO-K1
Give measured Emax for each item. Keep answers brief.
# value in %; strip the unit string

Q) Tell me the measured Emax of CCCc1cc(C(O)(C(F)(F)F)C(F)(F)F)cc(CCC)c1OCC#CCN1C(=O)NC(C)(c2ccc(OC(C)C)cc2)C1=O (stereo not drawn) , please.
A) 27

Q) Using the record for CCCc1cc(C(O)(C(F)(F)F)C(F)(F)F)ccc1Oc1ccc(CN2C(=O)NC(C)(c3ccc(OC(C)C)cc3)C2=O)cc1 (stereo not drawn) , report its Emax.
A) 0

Q) Item under review: CCCc1cc(C(O)(C(F)(F)F)C(F)(F)F)ccc1Oc1cccc(CCN2C(=O)NC(C)(c3ccc(OC(C)C)cc3)C2=O)c1 (stereo not drawn) . Reported Emax?
A) 23

Q) # Emax lookup, item CCCc1cc(C(O)(C(F)(F)F)C(F)(F)F)ccc1Oc1ccc(C(=O)CN2C(=O)NC(C)(c3ccc(OC(C)C)cn3)C2=O)c(O)c1 (single isomer, unassigned; (-))
A) 164

Q) # lookup: Emax of CCCc1cc(C(O)(C(F)(F)F)C(F)(F)F)ccc1Oc1ccc(CCN2C(=O)NC(C)(c3ccc(OC(C)C)cc3)C2=O)c(OC)c1 (stereo not drawn)
A) 0

Q) Suppose we examine the compound CCCc1cc(C(O)(C(F)(F)F)C(F)(F)F)ccc1Oc1ccc(C(=O)CN2C(=O)NC(C)(c3ccc(OC(C)C)cc3)C2=O)c(C)c1 (stereo not drawn) ; what Emax value has been reported?
A) 71

Q) Can you look up the measured Emax of CCCc1cc(C(O)(C(F)(F)F)C(F)(F)F)ccc1Oc1ccc(CCN2C(=O)NC(C)(c3ccc(OC(C)C)cc3)C2=O)c(C)c1 (stereo not drawn) for me?
A) 53

Q) May I ask what Emax has been recorded for CCCc1cc(C(O)(C(F)(F)F)C(F)(F)F)cc(CCC)c1OC/C=C/CN1C(=O)NC(C)(c2ccc(OC(C)C)cc2)C1=O (stereo not drawn) ?
A) 40

Q) Could you share which Emax value was measured for CCCc1cc(C(O)(C(F)(F)F)C(F)(F)F)ccc1Oc1ccc(C(=O)CN2C(=O)NC(C)(c3ccc(OC(C)C)cn3)C2=O)c(O)c1 (racemic) ?
A) 68

Q) Tell me the measured Emax of CCCc1cc(C(O)(C(F)(F)F)C(F)(F)F)ccc1Oc1cccc(CN2C(=O)NC(C)(c3ccc(OC(C)C)cc3)C2=O)c1 (stereo not drawn) , please.
A) 53

Q) Reported Emax for CCCc1cc(C(O)(C(F)(F)F)C(F)(F)F)ccc1Oc1ccc(C(=O)CN2C(=O)NC(C)(c3ccc(OC(C)C)cc3)C2=O)c(O)c1 (stereo not drawn) : what is it?
A) 55

Q) Please report the recorded Emax for CCCc1cc(C(O)(C(F)(F)F)C(F)(F)F)ccc1Oc1ccc(C(=O)CN2C(=O)NC(C)(c3ccc(OC(C)C)cc3)C2=O)cc1 (stereo not drawn) .
A) 46

Q) Look up Emax: CCCc1cc(C(O)(C(F)(F)F)C(F)(F)F)ccc1Oc1ccc(CCN2C(=O)NC(C)(c3ccc(OC(C)C)cc3)C2=O)c(O)c1 (stereo not drawn)
A) 1
